Data origin: patent US9469650B2

Tested on: NCI-H460
Test name: panel of 60 human tumor cell lines, growth inhibition (Non-Small Cell Lung Cancer)
Assay context: Homo sapiens, NCI-H460, read-out: LC50
Result type: CC50 (µM)
Give just the numeric value; µM need not be written.

Compound	Readout number
C=C1C(=O)O[C@H]2[C@H]1CC/C(COC(=O)OC)=C\CC[C@@]1(C)O[C@@H]21 [JVM 2-40]	89.7

Proceeding to the next compound to report its CC50.
Problem: Enter reported CC50 observed with NCI-H460 for C=C1C(=O)O[C@H]2[C@H]1CC/C(COC(=O)NCCc1ccccn1)=C\CC[C@@]1(C)O[C@@H]21 [JVM 61]
Result: 97.4

###

Test system: SR
Test name: panel of 60 human tumor cell lines, growth inhibition (Leukemia)
Assay context: Homo sapiens
GI50 values for the compounds below.
Give just the numeric value; µM need not be written.

Here is how some compounds turned out for GI50.
C=C1C(=O)O[C@H]2[C@H]1CC/C(COC(=O)OCCCN1CCCCC1)=C\CC[C@@]1(C)O[C@@H]21 2.12
C=C1C(=O)O[C@H]2[C@H]1CC/C(COC(=O)Nc1n[nH]c(SC)n1)=C\CC[C@@]1(C)O[C@@H]21 2.36
C=C1C(=O)O[C@H]2[C@H]1CC/C(COC(=O)CCC(=O)NCc1ccc(Cl)nc1)=C\CC[C@@]1(C)O[C@@H]21 2.59
C=C1C(=O)O[C@H]2[C@H]1CC/C(COC(=O)N1CCC(F)(F)CC1)=C\CC[C@@]1(C)O[C@@H]21 1.38
C=C1C(=O)O[C@H]2[C@H]1CC/C(COC(=O)NCCCCCCO)=C\CC[C@@]1(C)O[C@@H]21 2.35

Proceeding to the next compound to report its GI50.
Problem: Given C=C1C(=O)O[C@H]2[C@H]1CC/C(COC(=O)NCCc1ccccn1)=C\CC[C@@]1(C)O[C@@H]21 , state its recorded GI50.
Result: 4.1

###

Target or system SF-268: recorded CC50 listed per item.
Give just the numeric value; µM need not be written.

Here is how some molecules turned out for CC50.
Molecule	CC50 (µM)
C=C1C(=O)O[C@H]2[C@H]1CC/C(COC(=O)CCC(=O)N1CCC(C)CC1)=C\CC[C@@]1(C)O[C@@H]21 [JVM 2-70]	69.1
C=C1C(=O)O[C@H]2[C@H]1CC/C(COC(=O)NCCO)=C\CC[C@@]1(C)O[C@@H]21 [JVM 2-50]	99.1
C=C1C(=O)O[C@H]2[C@H]1CC/C(COC(=O)N1CCC(F)(F)CC1)=C\CC[C@@]1(C)O[C@@H]21 [JVM 2-66]	56.5
C=C1C(=O)O[C@H]2[C@H]1CC/C(COC(=O)NCCN1CCCCC1)=C\CC[C@@]1(C)O[C@@H]21 [JVM 2-13]	60.2
C=C1C(=O)O[C@H]2[C@H]1CC/C(COC(=O)NC)=C\CC[C@@]1(C)O[C@@H]21 [JVM 2-57]	68.6

Problem: Enter reported CC50 observed with SF-268 for C=C1C(=O)O[C@H]2[C@H]1CC/C(COC(=O)N1CCN(C)CC1)=C\CC[C@@]1(C)O[C@@H]21 [JVM 2-44]
Result: 75.7

###

Test system: HCT-116
Test name: panel of 60 human tumor cell lines, growth inhibition (Colon Cancer)
Assay context: read-out: LC50; HCT-116; NCI five dose
Result type: CC50 (µM)
Give just the numeric value; µM need not be written.

Problem: Given C=C1C(=O)O[C@H]2[C@H]1CC/C(COC(=O)NCCO)=C\CC[C@@]1(C)O[C@@H]21 [JVM 2-50] , state its recorded CC50.
Result: 53.2
